experiment: Pharmacokinetics in male CD-1 mice (plasma and tissue, LC-MS/MS); settings: CD-1, mouse, tissue (muscle or skin, not specified) / plasma, subcutaneous, 1 mg/kg
measure-name: Kp
Quick one: just the number, no unit, thanks!

Qu. State the recorded Kp for this entry: CC(C)Cc1ccc([C@H](C)C(=O)NCCCC[N+]23CC(=O)O[B-]2([C@H](CC(C)C)NC(=O)[C@H](Cc2ccccc2)NC(=O)c2cnccn2)OC(=O)C3)cc1 (stereo partly shown)
Ans. 365

* * *

assay: physchem; details: buffer, pH 7.4
Form field: half-life at 10 µM (one value per entry).
Numeric only. Scale: h

CCc1c2c(nc3ccc(OC(=O)C(C)CCc4ccc(I)cc4)cc13)-c1cc3c(c(=O)n1C2)COC(=O)[C@]3(O)CC (some centres unmarked)
23.1

Then there is this molecule:
Qu. State the recorded half-life at 10 µM for this entry: `CCc1c2c(nc3ccc(OC(=O)CCCc4ccc(I)cc4)cc13)-c1cc3c(c(=O)n1C2)COC(=O)[C@]3(O)CC`
Ans. 19.7

Ref: patent US20250082657A1
